// values below are reported GI50
test system: SR; experiment: NCI tumour cell line growth inhibition, 48 h
Calls of active or inactive are those of the source. Rule as the data show it: active = GI50 up to about 1.1 µM and inactive = higher.

{"columns": ["compound", "GI50"],
 "data": [
  ["COC(=O)c1cc2ccc(OC(C)=O)c(OC(C)=O)c2cn1", "2.65 µM (inactive)"],
  ["COc1cc2c(cc1OCCCCOc1cc3c(cc1OC)C(=O)N1CCC[C@H]1C(=O)N3)N=C[C@@H]1CCCN1C2=O", "2.17 µM (inactive)"],
  ["NS(=O)(=O)c1ccc(NC(=S)N/C=C2\\C(=O)Nc3ccccc3C2=O)cc1", "> 100 µM (inactive)"],
  ["N#CCCC(CC#N)N1CCN(C(CC#N)CCC#N)CC1 (stereo unspecified)", "> 100 µM (inactive)"],
  ["COc1ccc(N2C(=O)C3c4[nH]c5cc(C)ccc5c4C4CCC(C(C)(C)C)CC4C3C2=O)cc1 (stereo unspecified)", "> 10 µM (inactive)"],
  ["Cc1csc2c1-n1cccc1C2=O", "> 100 µM (inactive)"]
]}

* * *

test system: KM12; assay: NCI tumour cell line growth inhibition, 48 h
Calls of active or inactive are those of the source. Rule as the data show it: active = GI50 up to about 1.1 µM and inactive = higher.
// values below are reported GI50
experimental.readout: GI50

{"columns": ["compound", "experimental.readout", "result"],
 "data": [
  ["COc1ccc2nc3c([N+](=O)[O-])ccc4c3c(c2c1)N(CCCN(C)C)C(=S)N4CCCN(C)C", "GI50", "2.5 µM (inactive)"],
  ["N#Cc1c(-c2ccc(Cl)cc2)c2c([nH]c1=O)-c1cc([N+](=O)[O-])ccc1CCC2", "GI50", "16.4 µM (inactive)"],
  ["CCNc1nc2c(ncn2C2CC(O)C(COP(=O)(O)O)O2)c(=O)[nH]1 (centres undefined)", "GI50", "> 100 µM (inactive)"],
  ["CC(=O)c1cccc(NC(=O)C(=O)Nn2c(N)nnc2N)c1", "GI50", "> 100 µM (inactive)"],
  ["CCc1cc(C(=O)OC)cn1C(=N)c1ccc(Cl)cc1", "GI50", "> 100 µM (inactive)"],
  ["COC(=O)[C@H](C)[C@H]1CC[C@@](C)([C@H]2CC3C(C)(C)[C@H]4CCC(C)=C[C@H]4C[C@@]3(C)O2)OO1 (some centres undefined)", "GI50", "11.7 µM (inactive)"],
  ["CCOC(=O)c1c(N2CCOCC2)[nH]c(=O)c(C(c2ccc(OC)cc2)c2c(O)c(C(=O)OCC)c(N3CCOCC3)[nH]c2=O)c1O", "GI50", "> 100 µM (inactive)"],
  ["CCOC(=O)C(C)c1nc2cc(N3CCN(C)CC3)c(F)cc2[nH]c1=O (centres undefined)", "GI50", "> 100 µM (inactive)"],
  ["COc1nc(OC)nc(-c2cccc(F)c2)n1", "GI50", "15.7 µM (inactive)"]
]}

* * *

test system: OVCAR-8; assay: NCI tumour cell line growth inhibition, 48 h
Active and inactive are the calls of the source. Rule as the data show it: active = GI50 up to about 1.1 µM and inactive = higher. Starred links: 1 amine or outer side, 2 acyl side, 3 side chain; linkers in the order of their positions; H or OH if unused. Non-standard residues stand in square brackets, D forms with d. Residues, ends and D or L forms follow the SMILES beside them. *: point of attachment. X34 = CC(=O)N(C)SCC(N[*:1])C(=O)[*:2]; Cbz = O=C(OCc1ccccc1)*; Bn = c1ccc(C*)cc1; For = O=C*
// values below are reported GI50

{"columns": ["compound", "GI50"],
 "data": [
  ["Cc1cc(N(CCC#N)CCC#N)ccc1/N=N/c1ccc(Br)cc1", "> 37.6 µM (inactive)"],
  ["N#Cc1c(-c2ccc(Cl)cc2)c2c([nH]c1=O)-c1cc([N+](=O)[O-])ccc1CCC2", "20.5 µM (inactive)"],
  ["CC(C)(/C=N/O)/[N+]([O-])=C/c1ccccc1", "> 100 µM (inactive)"],
  ["CC1c2[nH]c3ccccc3c2CCN1O (centres undefined)", "> 100 µM (inactive)"],
  ["Nc1c(Cl)c([N+](=O)[O-])cc2c1OCCCCO2", "> 100 µM (inactive)"],
  ["NS(=O)(=O)c1ccc(NC(=O)Cc2nc3ccccc3s2)cc1", "20.4 µM (inactive)"],
  ["CCC(C)(C)c1ccc(OCCCCNC(=O)c2ccc3ccccc3c2O)c(C(C)(C)CC)c1", "27.5 µM (inactive)"],
  ["COc1nc(OC)nc(-c2cccc(F)c2)n1", "23.4 µM (inactive)"],
  ["COc1cc(OC)c(SSCCCCS(=O)O)c(OC)c1", "16 µM (inactive)"],
  ["CC(=O)c1ccc(O)c(CN(C2CCCCC2)C2CCCCC2)c1O", "> 100 µM (inactive)"],
  ["CCOP(=O)(OCC)C(C)(CC)NC1=NC(C(F)(F)F)(C(F)(F)F)NC(=O)N1 (centres undefined)", "> 100 µM (inactive)"],
  ["CCCCCCCCOCC(COC(=O)CCCCCCC)OC(=O)CCCCCCC (centres undefined)", "> 100 µM (inactive)"],
  ["CCCC(=O)Nc1ccc2c(c1)CN1C(=O)c3ccccc3C1=N2", "> 100 µM (inactive)"],
  ["CCC(C)C1(O)OC2CC3(C)OC(=CC3=O)/C(C)=C\\C3OC(=O)C1(C)C32 (centres undefined)", "16 µM (inactive)"],
  ["O=C(Nc1ccc(Cl)cc1C(F)(F)F)C(=O)C1CCCS1(=O)=O (centres undefined)", "> 100 µM (inactive)"],
  ["COc1ccccc1/C=C1\\NC(=S)N(/C=C2\\C(=O)Oc3ccccc3C2=O)C1=O", "36.6 µM (inactive)"],
  ["COc1ccc(CN(CCc2c[nH]c3ccccc23)Cc2ccc(OC)cc2)cc1", "3.95 µM (inactive)"],
  ["CC(=O)N(C)SCC(NC(=O)C(Cc1ccccc1)NC(=O)OCc1ccccc1)C(=O)NC(Cc1ccccc1)C(=O)NC(Cc1cn(C=O)c2ccccc12)C(=O)NC(CCCCNC(=O)OCc1ccccc1)C(=O)NC(C(=O)NC(CSN(C)C(C)=O)C(=O)NC(C(N)=O)C(C)OCc1ccccc1)C(C)OCc1ccccc1 (centres undefined) (Cbz-F[X34]FW(For)K(Cbz)T(Bn)[X34]T(Bn)-NH2; configuration not given here)", "26.1 µM (inactive)"],
  ["CCOC(=O)CNC(=O)N(CC)C12CC3CC(CC(C3)C1)C2", "150 µM (inactive)"]
]}

* * *

tested on: OVCAR-4; assay: NCI tumour cell line growth inhibition, 48 h
Active and inactive are the calls of the source. Cut-off read from the data, not from the text of the source: active = GI50 up to about 1.1 µM and inactive = higher.

{"columns": ["compound", "GI50"],
 "data": [
  ["O=c1oc2ccccc2cc1P(=O)(O)O", "> 100 µM (inactive)"],
  ["CC(=O)NC1=C(NCCN(C)C)C(=O)c2ccccc2C1=O", "8.93 µM (inactive)"],
  ["Cc1cnc2c(C)ccc([N+](=O)[O-])c2c1NCCCN(C)C", "> 100 µM (inactive)"],
  ["N=C(N)NS(=O)(=O)c1ccc(NC(=O)c2ccc(Cl)c3c(Nc4ccc(S(=O)(=O)N=C(N)N)cc4)c4ccccc4nc23)cc1", "> 100 µM (inactive)"],
  ["CC(C)C1CNC(=O)C2(/C=N/C(C(C)C)CNC(=O)C3(/C=N/1)CCCO3)CCCO2 (stereo unspecified)", "> 10 µM (inactive)"],
  ["Nc1c(Cl)c([N+](=O)[O-])cc2c1OCCCCO2", "> 100 µM (inactive)"],
  ["CC1C[C@H](C)CC(C(O)CC2CC(=O)N(Cc3ccccc3)C(=O)C2)C1O (stereo partly specified)", "> 100 µM (inactive)"],
  ["Cc1cc2c3ccccc3[nH]c2c2ccnc(C)c12", "> 100 µM (inactive)"],
  ["CCOc1ccc(/N=C\\c2ccc3cc(C)ccc3n2)cc1", "75.3 µM (inactive)"],
  ["CC(=O)/C=C(/C=N/O)c1ccccc1", "> 100 µM (inactive)"],
  ["COC(=O)CNC(=O)CCSc1nnc(COc2ccc(Cl)cc2)n1-c1ccccc1", "61.1 µM (inactive)"]
]}

* * *

tested on: SF-295; experiment: NCI tumour cell line growth inhibition, 48 h
Activity calls are given as the source filed them. Rule as the data show it: active = GI50 up to about 1.1 µM and inactive = higher.
experimental.readout: GI50

{"columns": ["compound", "experimental.readout", "result"],
 "data": [
  ["CC1=NN(c2nc(N)nc(/C(C#N)=C\\c3cccc([N+](=O)[O-])c3)n2)C(C)(C)C1", "GI50", "10.2 µM (inactive)"],
  ["[O-][n+]1c2c([n+]([O-])c3ccccc31)CCCCCCCCCC2", "GI50", "> 100 µM (inactive)"],
  ["CCOC(=O)C12CCC(c3c(C)cccc3C)(O1)C(C(=O)OC)=C2C(=O)OC (stereo not given)", "GI50", "5.45 µM (inactive)"],
  ["Cc1ccc(C2=Nc3c(c(C)nn3-c3ccccc3)N=C(C(=O)O)C2)cc1", "GI50", "> 10 µM (inactive)"],
  ["O=C(/C=C/c1ccc(/C=C/C(=O)c2ccc(O)cc2)cc1)c1ccc(O)cc1", "GI50", "> 100 µM (inactive)"]
]}
